System: MDA-MB-468 breast
Assay: NCI tumour cell line growth inhibition, 48 h
// TGI lookup, one value per entry

- Smiles String: "O=C1C(N2CCN(CCOCCO)CC2)=C(Cl)C(=O)c2ncccc21"
  Experimental Target: "MDA-MB-468 breast"
  TGI (µM): 39.3
- Smiles String: "COc1cc(F)c(F)cc1C(=O)c1cnc(NC2CCN(S(C)(=O)=O)CC2)nc1N"
  Experimental Target: "MDA-MB-468 breast"
  TGI (µM): 10.8
- Smiles String: "Cc1cc(=O)[nH]c(N/N=C/c2ccccc2O)n1"
  Experimental Target: "MDA-MB-468 breast"
  TGI (µM): 46.9
- Smiles String: "CN1CCN(C(=O)c2ccc(NC(=O)Nc3ccc(-c4nc(N5CCOCC5)c5cccn5n4)cc3)cc2)CC1"
  Experimental Target: "MDA-MB-468 breast"
  TGI (µM): 0.077
- Smiles String: "O=c1cc(-c2ccccc2)[nH]c2c1CCCC2"
  Experimental Target: "MDA-MB-468 breast"
  TGI (µM): 4.99

====

Items are presented alongside their recorded TGI.
System: MDA-MB-468 breast
Experiment: NCI tumour cell line growth inhibition, 48 h
Measured Parameter: TGI (µM)

- Smiles String: "COc1ccc(Nc2ncnc3ccc(-c4cncc(NS(C)(=O)=O)c4)cc23)cc1Cl"
  Measured Parameter: "TGI"
  Measured: 3.1
- Smiles String: "Cc1c(Nc2nccc3cc(CN4CC[C@@H](O)C4)cnc23)cccc1-c1cccc(-c2nc3cc(CN4CC[C@@H](C(=O)O)C4)cc(C#N)c3o2)c1C"
  Measured Parameter: "TGI"
  Measured: 35.2
- Smiles String: "CN(C)CCN1C(=O)c2cccc3c(/C=C/CN4C(=O)c5cccc6cccc(c56)C4=O)ccc(c23)C1=O"
  Measured Parameter: "TGI"
  Measured: 34.3
- Smiles String: "C=C1CC[C@H](C(=C)C)[C@H]2C=C(C)C(=O)C3=C(C(=O)[C@@](C)(O)C3)[C@H]12"
  Measured Parameter: "TGI"
  Measured: 1.94

====

System: MDA-MB-468 breast
Assay: NCI tumour cell line growth inhibition, 48 h; in the data active = GI50 below about 0.43 µM; inactive = the rest
Classes used: true for active, false for inactive

- Compound: "O=c1cc(-c2ccccc2)[nH]c2c1CCCC2"
  Experimental Target: "MDA-MB-468 breast"
  Assigned Category: "false"
- Compound: "Cc1nn(C)c2ncnc(N/N=C/c3cccc(O)c3O)c12"
  Experimental Target: "MDA-MB-468 breast"
  Assigned Category: "false"
- Compound: "CC(C)[P+](c1ccccc1)(c1ccccc1)c1ccccc1"
  Experimental Target: "MDA-MB-468 breast"
  Assigned Category: "false"
- Compound: "CC(C)C[C@H](NC(=O)Cn1cccc(CNC(=O)c2ccccc2)c1=O)B(O)O"
  Experimental Target: "MDA-MB-468 breast"
  Assigned Category: "true"
- Compound: "NC1=NC(SCc2ccccc2CCl)c2ncn(Cc3ccccc3CCl)c2N1 (stereo not drawn)"
  Experimental Target: "MDA-MB-468 breast"
  Assigned Category: "false"
- Compound: "O=C1OCC2=C1C(c1cccc(C(F)(F)F)c1)c1cc3c(cc1N2CCO)OCCO3 (stereo not drawn)"
  Experimental Target: "MDA-MB-468 breast"
  Assigned Category: "false"
- Compound: "O=C1NC(=O)C(c2cccc(Cl)c2)=C1Nc1ccc(Cl)c(C(=O)O)c1"
  Experimental Target: "MDA-MB-468 breast"
  Assigned Category: "false"
- Compound: "COc1cc(F)c(F)cc1C(=O)c1cnc(NC2CCN(S(C)(=O)=O)CC2)nc1N"
  Experimental Target: "MDA-MB-468 breast"
  Assigned Category: "false"
